Experiment: Solubility of drugs in soy oil, water, tocopherol and PC/tocopherol/water cubic phase
Conditions: tocopherol, oil or lipid
Result type: solubility (mg/mL)
Answer format: numeric, mg/mL implied, no suffix.

Ask | Indicate its recorded solubility; the compound in question is COc1c(C)c2c(c(O)c1C/C=C(\C)CCC(=O)OCCN1CCOCC1)C(=O)OC2 [Mycophenolate mofetil]
Reply | 200

* * *

Experiment: Solubility of drugs in soy oil, water, tocopherol and PC/tocopherol/water cubic phase
Details: water
Result type: solubility (µg/mL)
Answer format: numeric, µg/mL implied, no suffix.

In [3]: df
Out[3]:
                                   compound  obs_value
0  COc1c(C)c2c(c(O)c1C/C=C(\C)CCC(=O)OCCN1CCOCC1)C(=O)OC2 [Mycophenolate mofetil]         39

Ask | Indicate its recorded solubility; the compound in question is CCC(C)n1ncn(-c2ccc(N3CCN(c4ccc(OCC5COC(Cn6cncn6)(c6ccc(Cl)cc6Cl)O5)cc4)CC3)cc2)c1=O (centres unmarked)
Reply | 0.001

* * *

Experiment: Solubility of drugs in soy oil, water, tocopherol and PC/tocopherol/water cubic phase
Conditions: soy oil, oil or lipid
Result type: solubility (µg/mL)
Answer format: numeric, µg/mL implied, no suffix.

Ask | Indicate its recorded solubility; the compound in question is COc1c(C)c2c(c(O)c1C/C=C(\C)CCC(=O)OCCN1CCOCC1)C(=O)OC2 [Mycophenolate mofetil]
Reply | 3000

* * *

Assay: physchem
Conditions: oil or lipid, Solubility in cubic phase with spearmint oil in place of tocopherol
Result type: solubility (mg/mL)
Answer format: numeric, mg/mL implied, no suffix.

Ask | Indicate its recorded solubility; the compound in question is CC(=O)O[C@H]1C(=O)[C@@]2(C)[C@H]([C@H](OC(=O)c3ccccc3)[C@]3(O)C[C@H](OC(=O)[C@H](O)[C@@H](NC(=O)c4ccccc4)c4ccccc4)C(C)=C1C3(C)C)[C@]1(OC(C)=O)CO[C@@H]1C[C@@H]2O
Reply | 42

* * *

Assay: physchem
Settings: oil or lipid, Solubility in cubic phase with tocopherol, approx. 34% phosphatidylcholine, 31% tocopherol plus compound, 35% water
Result type: solubility
State the value, then name its unit.

Ask | Indicate its recorded solubility; the compound in question is CCOC(=O)c1cncn1[C@H](C)c1ccccc1 [Etomidate]
Reply | 105 mg/mL

* * *

Assay: physchem
Conditions: oil or lipid, Solubility in soy oil
Result type: solubility (mg/mL)
Answer format: numeric, mg/mL implied, no suffix.

Ask | Indicate its recorded solubility; the molecule in question is CCOC(=O)c1cncn1[C@H](C)c1ccccc1 [Etomidate]
Reply | 80

* * *

Assay: physchem
Details: oil or lipid, Solubility in spearmint oil (used in place of tocopherol)
Result type: solubility (mg/mL)
Answer format: numeric, mg/mL implied, no suffix.

Ask | Indicate its recorded solubility; the molecule in question is CC(=O)O[C@H]1C(=O)[C@@]2(C)[C@H]([C@H](OC(=O)c3ccccc3)[C@]3(O)C[C@H](OC(=O)[C@H](O)[C@@H](NC(=O)c4ccccc4)c4ccccc4)C(C)=C1C3(C)C)[C@]1(OC(C)=O)CO[C@@H]1C[C@@H]2O
Reply | 100
